Ref: ChEMBL document CHEMBL4808148

# Tgt: Protein deacetylase HDAC6 (Homo sapiens)
# Condition Context: at 10 µM
The whole screen tested about 5,600 compounds, of which about 150 (2.7%) showed an effect of 50% or more. What follows is part of a selection rich in strong results, with near analogues and random picks from the rest.
Measured Property: inhibition (%)
Answers are plain numbers, in %.

Example cases with answers are listed next.
c1ccc2[nH]c(-c3cscn3)nc2c1 | 84.5
CCOc1ccc2nc(S(N)(=O)=O)sc2c1 | 1.88
O=C(c1ccc2nccnc2c1)N1CCCCC1 | -1.26
CCC(C(=O)O)c1ccc(CC(C)C)cc1 (stereo not given) | 5.56

Prompt: Hello, I am looking for reported inhibition with Protein deacetylase HDAC6 (Homo sapiens) for `CCC(CC)Nc1cc(C)nc(Oc2c(C)cc(C)cc2C)c1C` . Could you help?
Completion: -6.76
